For each of the binders below, state its pKd.
TESTED SYSTEM: (NANP)6 (Plasmodium falciparum)
EXPERIMENT SUMMARY: BLI, target on sensor
By convention, pKd is the negative base-10 log of a molar concentration.

Prompt line: Which pKd is listed for AB-007051 (antibody, V domains shown) VH: QMQLVESGGGVVQPGRSLRLSCTASGFTFSTYAMHWVRQSPGQGLQWVAVISYHSRNKYYEDSVRGRFTISRDNSKNTLYLQMNSLRAEDTAVYYCARDGYSSSFFDFWGQGTLVTVSS VL: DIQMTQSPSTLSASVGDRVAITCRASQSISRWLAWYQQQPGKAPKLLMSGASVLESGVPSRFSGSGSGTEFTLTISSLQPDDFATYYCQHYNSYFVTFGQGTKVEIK ?
Response line: 8.97

Prompt line: Which pKd is listed for AB-007033 (antibody, V domains shown) VH: QMQLVESGGGVVQPGRSLRLSCAASGFTFSTYAMHWVRQAPGQGLEWVAVISYHSTNKYYADSVRGRFTISRDNSKNTLYLQMNSLRAEDTAVYYCARDGYSSSFFDFWGQGTLVTVSS VL: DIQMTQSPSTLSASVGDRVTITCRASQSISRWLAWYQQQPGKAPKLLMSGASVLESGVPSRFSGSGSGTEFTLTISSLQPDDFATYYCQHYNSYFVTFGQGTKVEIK ?
Response line: 9.52

Prompt line: Which pKd is listed for AB-007049 (antibody, V domains shown) VH: QMQLVESGGGVVQPGRSLRLSCTASGFTFSTYAMHWVRQSPGQGLQWVAVISNHETNKYYEDSVRGRFTISRDNSKNTLYLQMNSLRAEDTAVYYCARDGYSSSFFDFWGQGTLVTVSS VL: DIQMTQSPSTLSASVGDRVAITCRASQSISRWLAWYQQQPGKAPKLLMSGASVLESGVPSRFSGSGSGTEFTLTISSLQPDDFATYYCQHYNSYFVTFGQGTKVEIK ?
Response line: 9.24

All values here come from patent US20220195023A1.
